# run_conditions: in n-propanol, 333.24 K
recorded_endpoint: solubility (mole fraction)
Answer field: number only, no words.

Given the compound `O=P(Oc1ccccc1)(Oc1ccccc1)Oc1ccc(OP(=O)(Oc2ccccc2)Oc2ccccc2)cc1` , what is its reported solubility (mole fraction)?
0.0136

---

# run_conditions: in methanol, 293.25 K
recorded_endpoint: solubility (mole fraction)
Enter a number only.

Record request: solubility (mole fraction) value, item `O=P(Oc1ccccc1)(Oc1ccccc1)Oc1ccc(OP(=O)(Oc2ccccc2)Oc2ccccc2)cc1`
0.00022

---

# run_conditions: in acetone, 318.15 K
recorded_endpoint: solubility (mole fraction)
Hey, just send me the number, nothing else.

// query solubility (mole fraction) value for entry `O=P(Oc1ccccc1)(Oc1ccccc1)Oc1ccc(OP(=O)(Oc2ccccc2)Oc2ccccc2)cc1`
0.0332

---

# run_conditions: in n-propanol, 318.18 K
recorded_endpoint: solubility (mole fraction)
Number only, no unit.

Look up solubility (mole fraction) for this compound: `O=P(Oc1ccccc1)(Oc1ccccc1)Oc1ccc(OP(=O)(Oc2ccccc2)Oc2ccccc2)cc1`
0.0035

---

# run_conditions: in toluene, 313.25 K
recorded_endpoint: solubility (mole fraction)
Answer with a number only.

Form field: reported solubility (mole fraction) of `O=P(Oc1ccccc1)(Oc1ccccc1)Oc1ccc(OP(=O)(Oc2ccccc2)Oc2ccccc2)cc1`
0.0154

---

# run_conditions: in ethyl acetate, 293.25 K
recorded_endpoint: solubility (mole fraction)
Answer field: number only, no words.

So what's the measured solubility (mole fraction) for this one? `O=P(Oc1ccccc1)(Oc1ccccc1)Oc1ccc(OP(=O)(Oc2ccccc2)Oc2ccccc2)cc1`
0.00423

---

# run_conditions: in isopropanol, 313.35 K
recorded_endpoint: solubility (mole fraction)
I'd appreciate a reply containing only the number, no unit.

For the compound shown here, `O=P(Oc1ccccc1)(Oc1ccccc1)Oc1ccc(OP(=O)(Oc2ccccc2)Oc2ccccc2)cc1` , give the reported solubility (mole fraction).
0.00125

---

# run_conditions: in methyl acetate, 313.15 K
recorded_endpoint: solubility (mole fraction)
Please reply with the value in numeric form only.

Need solubility (mole fraction) of `O=P(Oc1ccccc1)(Oc1ccccc1)Oc1ccc(OP(=O)(Oc2ccccc2)Oc2ccccc2)cc1` , thanks.
0.0203

---

# run_conditions: in n-propanol, 328.15 K
recorded_endpoint: solubility (mole fraction)
I'd appreciate a reply containing only the number, no unit.

Look at this molecule and give its reported solubility (mole fraction). `O=P(Oc1ccccc1)(Oc1ccccc1)Oc1ccc(OP(=O)(Oc2ccccc2)Oc2ccccc2)cc1`
0.00884

---

# run_conditions: in ethyl acetate, 308.25 K
recorded_endpoint: solubility (mole fraction)
Output: the number by itself.

If you can, please state the reported solubility (mole fraction) value of `O=P(Oc1ccccc1)(Oc1ccccc1)Oc1ccc(OP(=O)(Oc2ccccc2)Oc2ccccc2)cc1` .
0.0123

---

# run_conditions: in isopropanol, 333.25 K
recorded_endpoint: solubility (mole fraction)
Respond numerically, and do not add a unit to the figure.

Quick one: solubility (mole fraction) of `O=P(Oc1ccccc1)(Oc1ccccc1)Oc1ccc(OP(=O)(Oc2ccccc2)Oc2ccccc2)cc1` ?
0.00933

---

# run_conditions: in ethyl acetate, 328.15 K
recorded_endpoint: solubility (mole fraction)
Reply briefly: the number, and no unit.

Which measured solubility (mole fraction) value corresponds to `O=P(Oc1ccccc1)(Oc1ccccc1)Oc1ccc(OP(=O)(Oc2ccccc2)Oc2ccccc2)cc1` ?
0.0419

---

# run_conditions: in toluene, 333.25 K
recorded_endpoint: solubility (mole fraction)
Please give only the number in your answer, with no unit.

Report solubility (mole fraction) for `O=P(Oc1ccccc1)(Oc1ccccc1)Oc1ccc(OP(=O)(Oc2ccccc2)Oc2ccccc2)cc1` please.
0.0556

---

# run_conditions: in methyl acetate, 303.25 K
recorded_endpoint: solubility (mole fraction)
I only need the number, thanks.

Find the recorded solubility (mole fraction) belonging to `O=P(Oc1ccccc1)(Oc1ccccc1)Oc1ccc(OP(=O)(Oc2ccccc2)Oc2ccccc2)cc1` and report it.
0.0106

---

# run_conditions: in isopropanol, 323.17 K
recorded_endpoint: solubility (mole fraction)
Give the value as a plain number.

Quick one: solubility (mole fraction) of `O=P(Oc1ccccc1)(Oc1ccccc1)Oc1ccc(OP(=O)(Oc2ccccc2)Oc2ccccc2)cc1` ?
0.00346

---

# run_conditions: in n-propanol, 308.15 K
recorded_endpoint: solubility (mole fraction)
Lab note: jot down the number only; don't add units.

For the molecule `O=P(Oc1ccccc1)(Oc1ccccc1)Oc1ccc(OP(=O)(Oc2ccccc2)Oc2ccccc2)cc1` , what solubility (mole fraction) is on record?
0.00127

---

# run_conditions: in ethyl acetate, 303.35 K
recorded_endpoint: solubility (mole fraction)
Please state the value as a number alone, without comment.

I would be grateful if you could share the reported solubility (mole fraction) for `O=P(Oc1ccccc1)(Oc1ccccc1)Oc1ccc(OP(=O)(Oc2ccccc2)Oc2ccccc2)cc1` .
0.00865

---

# run_conditions: in n-propanol, 313.24 K
recorded_endpoint: solubility (mole fraction)

GET /values?readout=solubility (mole fraction)&item= `O=P(Oc1ccccc1)(Oc1ccccc1)Oc1ccc(OP(=O)(Oc2ccccc2)Oc2ccccc2)cc1`
0.00215

---

# run_conditions: in isopropanol, 293.15 K
recorded_endpoint: solubility (mole fraction)
Answer with the value's number alone.

So what's the measured solubility (mole fraction) for this one? `O=P(Oc1ccccc1)(Oc1ccccc1)Oc1ccc(OP(=O)(Oc2ccccc2)Oc2ccccc2)cc1`
0.00013

---

# run_conditions: in methyl acetate, 323.45 K
recorded_endpoint: solubility (mole fraction)
The answer should be a number; do not append a unit.

GET /values?readout=solubility (mole fraction)&item= `O=P(Oc1ccccc1)(Oc1ccccc1)Oc1ccc(OP(=O)(Oc2ccccc2)Oc2ccccc2)cc1`
0.0369

---

# run_conditions: in acetonitrile, 333.25 K
recorded_endpoint: solubility (mole fraction)
A bare number is all that is needed in reply.

Value lookup for solubility (mole fraction); key = `O=P(Oc1ccccc1)(Oc1ccccc1)Oc1ccc(OP(=O)(Oc2ccccc2)Oc2ccccc2)cc1`
0.0357

---

# run_conditions: in ethanol, 318.25 K
recorded_endpoint: solubility (mole fraction)
Answer with a number only.

Can you look up the measured solubility (mole fraction) of `O=P(Oc1ccccc1)(Oc1ccccc1)Oc1ccc(OP(=O)(Oc2ccccc2)Oc2ccccc2)cc1` for me?
0.00356

---

# run_conditions: in toluene, 323.25 K
recorded_endpoint: solubility (mole fraction)
Give your answer as a number; write no unit.

Bench note: what solubility (mole fraction) did `O=P(Oc1ccccc1)(Oc1ccccc1)Oc1ccc(OP(=O)(Oc2ccccc2)Oc2ccccc2)cc1` show?
0.0303

---

# run_conditions: in acetone, 298.15 K
recorded_endpoint: solubility (mole fraction)

Bench note: what solubility (mole fraction) did `O=P(Oc1ccccc1)(Oc1ccccc1)Oc1ccc(OP(=O)(Oc2ccccc2)Oc2ccccc2)cc1` show?
0.00849

---

# run_conditions: in acetone, 293.25 K
recorded_endpoint: solubility (mole fraction)
No unit in the answer, please; the number alone is enough.

Which solubility (mole fraction) value is on record for `O=P(Oc1ccccc1)(Oc1ccccc1)Oc1ccc(OP(=O)(Oc2ccccc2)Oc2ccccc2)cc1` ?
0.0058

---

# run_conditions: in methanol, 323.45 K
recorded_endpoint: solubility (mole fraction)

May I ask what solubility (mole fraction) has been recorded for `O=P(Oc1ccccc1)(Oc1ccccc1)Oc1ccc(OP(=O)(Oc2ccccc2)Oc2ccccc2)cc1` ?
0.00597

---

# run_conditions: in acetone, 308.15 K
recorded_endpoint: solubility (mole fraction)
// keep it numeric: no unit symbol after the value

// solubility (mole fraction) lookup, key: `O=P(Oc1ccccc1)(Oc1ccccc1)Oc1ccc(OP(=O)(Oc2ccccc2)Oc2ccccc2)cc1`
0.0171

---

# run_conditions: in methanol, 308.15 K
recorded_endpoint: solubility (mole fraction)
Respond using a number only.

Which solubility (mole fraction) is reported for this compound? `O=P(Oc1ccccc1)(Oc1ccccc1)Oc1ccc(OP(=O)(Oc2ccccc2)Oc2ccccc2)cc1`
0.00118

---

# run_conditions: in acetonitrile, 298.15 K
recorded_endpoint: solubility (mole fraction)

// returns reported solubility (mole fraction) for input `O=P(Oc1ccccc1)(Oc1ccccc1)Oc1ccc(OP(=O)(Oc2ccccc2)Oc2ccccc2)cc1`
0.00218

---

# run_conditions: in ethanol, 298.15 K
recorded_endpoint: solubility (mole fraction)

Endpoint output: solubility (mole fraction) of `O=P(Oc1ccccc1)(Oc1ccccc1)Oc1ccc(OP(=O)(Oc2ccccc2)Oc2ccccc2)cc1` . Value?
0.00062

---

# run_conditions: in ethanol, 323.25 K
recorded_endpoint: solubility (mole fraction)
No unit in the answer, only the number.

I'd like to know its solubility (mole fraction). The molecule in question is `O=P(Oc1ccccc1)(Oc1ccccc1)Oc1ccc(OP(=O)(Oc2ccccc2)Oc2ccccc2)cc1`
0.00528

---

# run_conditions: in acetone, 303.45 K
recorded_endpoint: solubility (mole fraction)

Any idea what solubility (mole fraction) was measured for `O=P(Oc1ccccc1)(Oc1ccccc1)Oc1ccc(OP(=O)(Oc2ccccc2)Oc2ccccc2)cc1` ?
0.0121

---

# run_conditions: in methyl acetate, 318.15 K
recorded_endpoint: solubility (mole fraction)
Lab note: record the figure alone, no unit after it.

Give its solubility (mole fraction) value. Item: `O=P(Oc1ccccc1)(Oc1ccccc1)Oc1ccc(OP(=O)(Oc2ccccc2)Oc2ccccc2)cc1`
0.0275
